Experiment: amyloid nucleation score (Sup35N fusion, yeast selection) (log enrichment); library NNK1; higher = more nucleation; inactive = no reads after selection;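 note: zero at mode of non-aggregating sequences after 7 days selection at 30°C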
Threshold rule: amyloid nucleation score greater than or equal to 1 is label 1; below that, label 0.

Example cases with answers are listed next.
Is it the case that `CSYPYGQSEDCGSRSGRGYA` has amyloid nucleation score reaching or exceeding 1?
label 0

Also check `ILFFRRCISVGLL`
label 1

Further cases:
Hello, I need to know if `FASLFYKLQASLFTLDNIMH` has measured amyloid nucleation score not below 1. Thanks!
label 0

Next: `AAMAYFWADRLKHGFYTW`
label 1

Another substance to check: `LNINSFFVFGT`
label 1

Now consider `TNSFSVGCVRIP` and answer again.
label 0

Follow-up entry: `VNSCFSQYYKGHPTLMHERL`
label 0

* * *

Test: amyloid nucleation score (Sup35N fusion, yeast selection) (log enrichment); library NNK1; higher = more nucleation; inactive = no reads after selection
Record form. Attribute: amyloid nucleation score. Fill in for each entry.
One number for each entry.

Looking for the measured amyloid nucleation score of `VWMVMSYPDHTLVLLLTG` , can you help?
-1.33

Field entry: `VDVANGLADVYLLQ`
-0.009

Query `SWLGPRWSFWFWFFIWSSGL` next
1.37

What do you get for `AMWLFACGLWLLLPRYIGRC` ?
-0.485

// same read-out, input: `VPNYHAISYIVDLTMCSLFQ`
8.38

Subsequent entry: `FFHNTSHASYIK`
1.09

Moving on to the next substance: `DASLVGLQLSHHSILFHCSM`
0.021

Let us now turn to `LGRGTKMLLKVYTVRTSNYR`
0.592

Also check `FSRSWGDCIGERCGVV`
0.307

Again, but for `KVFWLYPMNLS`
0.278

Need amyloid nucleation score for each of these substances.
1. FGPCMRFDCCNRGST
2. HVQEDLNAVGHPLEFEMTVR
3. KFIVVS
4. HVHTDSIDRVWRVLFTIKSK
5. RPNCIVINGVKWYSAYWIGI
6. GFLVSEGFLIVGLLIRVRGL

1: 4.72; 2: -0.979; 3: 0.507; 4: 0.776; 5: -0.915; 6: 0.641

Need amyloid nucleation score, item `IMWSKENWDGG`
-0.649

* * *

Test: amyloid nucleation score (Sup35N fusion, yeast selection) (log enrichment); library NNK1; higher = more nucleation; inactive = no reads after selection
Each record gets a class by amyloid nucleation score: interval 1 = under 0.09, interval 2 = from 0.09 up to 1, interval 3 = 1 and over

Below are worked cases with known answers.
For `ISGFMLQVLTRRYSWMSA` , which amyloid nucleation score bin applies?
interval 1

Queued: `FHHTKSGS`
interval 3

Lookup `NLIWMVKYCYIIFRIPTTCL`
interval 3

Could you do the same for `AWIDCVSTNTTLDIPSLGP` , please?
interval 2

Others:
Textbook exercise: identify the category of the sequence given here, `AGGLLYMLTHLNDVHSVKRY` , according to its measured value.
interval 3

Further, for `RRWALRYINSATLFFLKVIG` ?
interval 1

One more sequence: `CSCACCVELHQL`
interval 3

Same for `LKWWWIQNAGCTVVIMVL`
interval 1

Similarly, `GFSSMGCSVRNSHTAHGGCG` ?
interval 3

Same question, `DNFMSAGRLWSDSSADLIIT` this time
interval 2
